system: Hydroxyapatite; test: Binding affinity to bone mineral hydroxyapatite assessed as residual concentration of compound after 24 hrs
Assay Readout: Activity (%)

- O=P(O)(O)C(O)(CCCCOc1no[n+]([O-])c1-c1ccccc1)P(=O)(O)O: 27
- O=P(O)(O)C(CCCCOc1no[n+]([O-])c1-c1ccccc1)P(=O)(O)O: 44
- O=P(O)(O)C(O)(CCCCOc1no[n+]([O-])c1S(=O)(=O)c1ccccc1)P(=O)(O)O: 33

----------
test system: Hydroxyapatite; experiment: Binding affinity to bone mineral hydroxyapatite assessed as residual concentration of compound after 6 hrs
Threshold 50%. Activity below it: t. Activity at it or above: f.

• O=P(O)(O)C(O)(CCCCOc1nonc1S(=O)(=O)c1ccccc1)P(=O)(O)O = t
• O=P(O)(O)C(O)(CCCCOc1no[n+]([O-])c1-c1ccccc1)P(=O)(O)O = t
• O=P(O)(O)C(CCCCOc1nonc1-c1ccccc1)P(=O)(O)O = f
• O=P(O)(O)C(CCCCOc1no[n+]([O-])c1S(=O)(=O)c1ccccc1)P(=O)(O)O = f
• O=P(O)(O)C(CCCCOc1nonc1S(=O)(=O)c1ccccc1)P(=O)(O)O = t
• O=P(O)(O)C(O)(CCCCOc1nonc1-c1ccccc1)P(=O)(O)O = t
• O=P(O)(O)C(O)(CCCCOc1no[n+]([O-])c1S(=O)(=O)c1ccccc1)P(=O)(O)O = t
• Cc1nonc1CN(C)CCCC(O)(P(=O)(O)O)P(=O)(O)O = f
• CCCCCN(C)CCC(O)(P(=O)(O)O)P(=O)(O)O [IBANDRONIC ACID] = f

----------
system: RAW264.7; experiment: Inhibition of osteoclastogenesis in RANKL-stimulated mouse RAW264.7 cells assessed as mature osteoclasts containing 3 or more nuclei at 10 uM after 3 days by using TRAP staining; assay type: functional, cell-based
Active and inactive are the calls of the source. No cut-off for these calls is given here.
Assay Readout: Activity

• O=P(O)(O)C(O)(CCCCOc1nonc1S(=O)(=O)c1ccccc1)P(=O)(O)O = Active
• O=P(O)(O)C(O)(CCCCOc1no[n+]([O-])c1-c1ccccc1)P(=O)(O)O = Active
• O=P(O)(O)C(CCCCOc1nonc1-c1ccccc1)P(=O)(O)O = Active
• O=P(O)(O)C(CCCCOc1no[n+]([O-])c1S(=O)(=O)c1ccccc1)P(=O)(O)O = Active
• CCCCCN(C)CCC(O)(P(=O)(O)O)P(=O)(O)O [IBANDRONIC ACID] = Active
• CN(CCCC(O)(P(=O)(O)O)P(=O)(O)O)Cc1no[n+]([O-])c1C(N)=O = Active
• Cc1c(CN(C)CCCC(O)(P(=O)(O)O)P(=O)(O)O)no[n+]1[O-] = Active
• O=P(O)(O)C(CCCCOc1no[n+]([O-])c1-c1ccccc1)P(=O)(O)O = Active
• O=P(O)(O)C(O)(CCCCOc1nonc1-c1ccccc1)P(=O)(O)O = Active
• O=P(O)(O)C(CCCCOc1nonc1S(=O)(=O)c1ccccc1)P(=O)(O)O = Active

----------
tested on: Hydroxyapatite; assay: Binding affinity to bone mineral hydroxyapatite assessed as residual concentration of compound after 24 hrs
Criterion: Activity meeting or surpassing 40%. Met: label 1. Not met: label 0.

* O=P(O)(O)C(O)(CCCCOc1nonc1S(=O)(=O)c1ccccc1)P(=O)(O)O | label 0
* CCCCCN(C)CCC(O)(P(=O)(O)O)P(=O)(O)O [IBANDRONIC ACID] | label 1
* O=P(O)(O)C(O)(CCCCOc1nonc1-c1ccccc1)P(=O)(O)O | label 0
* CN(CCCC(O)(P(=O)(O)O)P(=O)(O)O)Cc1no[n+]([O-])c1C(N)=O | label 1
* CN(CCCC(O)(P(=O)(O)O)P(=O)(O)O)Cc1nonc1C(N)=O | label 1
* O=P(O)(O)C(CCCCOc1nonc1-c1ccccc1)P(=O)(O)O | label 1
* O=P(O)(O)C(CCCCOc1no[n+]([O-])c1S(=O)(=O)c1ccccc1)P(=O)(O)O | label 1
* Cc1nonc1CN(C)CCCC(O)(P(=O)(O)O)P(=O)(O)O | label 1
* Cc1c(CN(C)CCCC(O)(P(=O)(O)O)P(=O)(O)O)no[n+]1[O-] | label 1

meta.source: ChEMBL document CHEMBL1156999
